- measurement-target: HLA-DR DRB1*0701 (DR7) (Homo sapiens, UniProt P01903+P01911, A100R/A102G/A103Q/D57E/D86V/E43K/F76Y/K127E/L162R/M171V/P40G/Q125H/Q99D/R33Q/R42Y/R54Q/S133A/S66F/T210M/V115G/Y107V/Y59L/Y89S)
- assay-info: biochemical
- Type: binding
- protocol-conditions: DRB1 *0701
measured-metric: IC50 (nM)
Just the number please, in nM, no unit attached.

{"smiles-representation": "CSCC[C@H](NC(=O)[C@H](CCC(N)=O)NC(=O)[C@@H](NC(=O)[C@H](Cc1ccccc1)NC(=O)[C@H](C)NC(=O)[C@@H](NC(=O)CN)[C@@H](C)O)C(C)C)C(=O)N1CCC[C@H]1C(=O)N[C@@H](C)C(=O)N[C@@H](Cc1c[nH]cn1)C(=O)NCC(=O)N[C@@H](CC(C)C)C(=O)N[C@@H](Cc1ccccc1)C(=O)N1CCC[C@H]1C(=O)N[C@@H](Cc1c[nH]c2ccccc12)C(=O)O", "value-unit": "nM", "experimental-value": 90}

Need IC50, item CC[C@H](C)[C@H](NC(=O)CNC(=O)[C@H](Cc1ccc(O)cc1)NC(=O)[C@H](CC(C)C)NC(=O)[C@H](CO)NC(=O)[C@H](CC(C)C)NC(=O)[C@H](CC(C)C)NC(=O)[C@H](CO)NC(=O)[C@H](CC(C)C)NC(=O)[C@H](CCC(=O)O)NC(=O)[C@H](CO)NC(=O)[C@H](CC(C)C)NC(=O)[C@H](CCC(=O)O)NC(=O)[C@H](CCCNC(=N)N)NC(=O)[C@@H](N)CC(C)C)C(=O)O
4010

* * *

Measured IC50 by item
- measurement-target: HLA-B*4002 (Homo sapiens, UniProt P01889, A65T/A93T/A95T/D138N/D201E/D98Y/E176V/E204Q/E69K/K202T/N87E/Q56L/Q94N/R180L/S48T/Y33H/Y91S)
- assay-info: biochemical
- Assay type: binding
No end group written: not given here.
The response must be a number in µM with no trailing unit.

For orientation, consider the following solved cases.
{"sequence-input": "DENLWVTVY", "IC50 [µM]": 41.1}
{"sequence-input": "YENLWVTVY", "IC50 [µM]": 0.324}
{"sequence-input": "AENLWVTVR", "IC50 [µM]": 1.74}
{"sequence-input": "AENFWVTVY", "IC50 [µM]": 0.542}
{"sequence-input": "LDPYARVAI", "IC50 [µM]": 0.372}
{"sequence-input": "AEPLWVTVY", "IC50 [µM]": 2.48}
{"sequence-input": "AENLWVTNY", "IC50 [µM]": 0.948}
{"sequence-input": "AENLWNTVY", "IC50 [µM]": 0.957}
{"sequence-input": "YEANGNLI", "IC50 [µM]": 0.007}
{"sequence-input": "AENLWFTVY", "IC50 [µM]": 0.668}

Return reported IC50; argument: AENLWVTLY
0.731

Sample AENLWVTVV — what was its IC50?
0.019

Could you share which IC50 value was measured for AENLWVTVG ?
0.047

* * *

- measurement-target: HLA-A*3002 (Homo sapiens, UniProt P04439, D101N/D140H/D185E/E176R/F33S/G80R/H175R/K168Q/Q94H/R138E/R41S/V100E)
- Sequence (P04439 whole entry, looked up, the tested form may be a part, stated change not applied): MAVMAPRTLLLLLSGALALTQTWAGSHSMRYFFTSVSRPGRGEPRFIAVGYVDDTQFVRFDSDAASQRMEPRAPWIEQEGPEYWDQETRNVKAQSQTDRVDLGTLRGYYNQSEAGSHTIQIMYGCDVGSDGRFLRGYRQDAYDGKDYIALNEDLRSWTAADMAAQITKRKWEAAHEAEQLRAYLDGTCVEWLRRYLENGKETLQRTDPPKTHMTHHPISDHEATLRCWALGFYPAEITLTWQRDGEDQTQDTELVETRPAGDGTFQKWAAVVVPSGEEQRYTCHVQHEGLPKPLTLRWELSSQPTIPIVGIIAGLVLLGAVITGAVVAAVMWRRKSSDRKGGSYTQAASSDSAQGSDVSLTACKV
- assay-info: biochemical
- Format: binding
- protocol-conditions: Binding affinity to A*3002 (expressed as an IC50)
Parameter: IC50. Scope: all listed entries.
Respond with the bare value in nM.

{"smiles-representation": "CC[C@H](C)[C@H](N)C(=O)N[C@@H](CO)C(=O)N[C@@H](CCC(=O)O)C(=O)N[C@@H](Cc1ccc(O)cc1)C(=O)N[C@@H](CCCNC(=N)N)C(=O)N[C@@H](Cc1c[nH]cn1)C(=O)N[C@@H](Cc1ccc(O)cc1)C(=O)N[C@@H](CC(N)=O)C(=O)N[C@@H](Cc1ccc(O)cc1)C(=O)O", "IC50 (nM)": 32}
{"smiles-representation": "CC[C@H](C)[C@H](NC(=O)[C@H](CC(=O)O)NC(=O)[C@H](CCC(N)=O)NC(=O)[C@@H](N)CCCNC(=N)N)C(=O)N[C@@H](CC(C)C)C(=O)N[C@@H](CC(=O)O)C(=O)N[C@@H](CC(C)C)C(=O)N[C@@H](Cc1c[nH]c2ccccc12)C(=O)N[C@H](C(=O)N[C@@H](Cc1ccc(O)cc1)C(=O)O)C(C)C", "IC50 (nM)": 95}
{"smiles-representation": "CC[C@H](C)[C@H](NC(=O)[C@H](CCCCN)NC(=O)[C@H](CCC(=O)O)NC(=O)[C@H](CC(C)C)NC(=O)[C@@H](N)[C@@H](C)O)C(=O)N[C@H](C(=O)N[C@@H](CC(N)=O)C(=O)N[C@H](C(=O)N[C@@H](CCC(=O)O)C(=O)N[C@@H](CC(C)C)C(=O)N[C@@H](Cc1ccc(O)cc1)C(=O)O)[C@@H](C)O)[C@@H](C)O", "IC50 (nM)": 3900}

State the recorded IC50 for this entry: CC(C)C[C@H](NC(=O)[C@H](Cc1c[nH]cn1)NC(=O)[C@H](CC(C)C)NC(=O)[C@H](CCCCN)NC(=O)[C@H](CCCNC(=N)N)NC(=O)CNC(=O)[C@H](Cc1ccc(O)cc1)NC(=O)[C@@H](NC(=O)[C@@H](N)CCCCN)[C@@H](C)O)C(=O)N[C@@H](Cc1ccc(O)cc1)C(=O)O
1.5

What value of measured IC50 is listed for CC(C)C[C@H](NC(=O)[C@@H](NC(=O)[C@@H](N)CCCCN)[C@@H](C)O)C(=O)N[C@@H](Cc1ccc(O)cc1)C(=O)N[C@@H](CCC(N)=O)C(=O)N[C@@H](CO)C(=O)N[C@@H](CC(N)=O)C(=O)N1CCC[C@H]1C(=O)N[C@@H](Cc1ccc(O)cc1)C(=O)O ?
35

Request the reported IC50 associated with CC[C@H](C)[C@H](NC(=O)[C@H](CCC(=O)O)NC(=O)[C@H](CC(C)C)NC(=O)[C@H](C)NC(=O)[C@H](CO)NC(=O)[C@H](CO)NC(=O)[C@H](CC(C)C)NC(=O)[C@@H](N)CCC(=O)O)C(=O)N1CCC[C@H]1C(=O)N[C@@H](Cc1ccc(O)cc1)C(=O)O
4470

Name the recorded IC50 for C[C@H](NC(=O)[C@H](CCC(N)=O)NC(=O)[C@@H](N)CCCNC(=N)N)C(=O)N[C@@H](CCCCN)C(=O)N[C@@H](CCC(N)=O)C(=O)N[C@@H](Cc1c[nH]cn1)C(=O)N[C@H](C(=O)N[C@@H](CS)C(=O)N[C@@H](Cc1ccc(O)cc1)C(=O)O)[C@@H](C)O .
108

Could you share which IC50 value was measured for CC(C)C[C@H](NC(=O)[C@H](Cc1c[nH]c2ccccc12)NC(=O)[C@@H]1CCCN1C(=O)[C@H](Cc1ccccc1)NC(=O)[C@H](CO)NC(=O)[C@@H](NC(=O)[C@H](Cc1ccc(O)cc1)NC(=O)[C@@H](N)CCCCN)[C@@H](C)O)C(=O)O ?
346
